Target: T1, rhNav1.7α + β1-β2-β3 (rhesus monkey)
T1 construct: also called rhNav1.7-beta1-beta2-beta3; rhNav1.7-β1-β2-β3
Assay: binding FACS, CHO FlpIn
Known Bmax of a selection of binders
State the answer as a number, implicitly in %.

binder	Bmax [%]
F010302364 (VHH) VHH: EVQLVESGGGVVQPGGSLRLSCAASHRAFIRDLFTGWYRQAPGKQRELVARIYESGNTNYADSVKGRFTISRDNAKKTVYLQMNSLRPEDTALYYCLFSGTISTGREYRSGDYWGQGTLVTVSS	74
F010302361 (VHH) VHH: EVQLVESGGGVVQPGGSLRLSCAASHRQFIRDVFTGWYRQAPGKQRELVARIYEGGNTQYADSVKGRFTISRDNAKKTVYLQMNSLRPEDTALYYCLFSGTISTGREYRSGDYWGQGTLVTVSS	92
F010302353 (VHH) VHH: EVQLVESGGGVVQPGGSLRLSCAASHRQFIRDVFTGWYRRAPGKQRELVARIYEGGNTQYADSVKGRFTISRDNAKKTVYLQMNSLRPEDTALYYCLFSGTISTGREYRSGDYWGQGTLVTVSS	93

For reference, reported Bmax for F010302346 (VHH) VHH: EVQLVESGGGVVQPGGSLRLSCAASHRAFIRDVFTGWYRQAPGKQRELVARIYESGNTQYADSAKGRFTISRDNAKKTVYLQMNSLRPEDTALYYCLFSGTISTGREYRSGDYWGQGTLVTVSS stands at 99
